Where do the numbers come from? From patent US20250388560A1.

MEASURE NAME: Kd

Q: Give recorded Kd with TRIM21 protein (Homo sapiens (Human), UniProt P19474) for the following compound: Cc1ccccc1-c1ccc(C(=O)N(C)CC2CCCCC2)c(S(C)(=O)=O)c1
Sequence (P19474 whole entry, species assumed): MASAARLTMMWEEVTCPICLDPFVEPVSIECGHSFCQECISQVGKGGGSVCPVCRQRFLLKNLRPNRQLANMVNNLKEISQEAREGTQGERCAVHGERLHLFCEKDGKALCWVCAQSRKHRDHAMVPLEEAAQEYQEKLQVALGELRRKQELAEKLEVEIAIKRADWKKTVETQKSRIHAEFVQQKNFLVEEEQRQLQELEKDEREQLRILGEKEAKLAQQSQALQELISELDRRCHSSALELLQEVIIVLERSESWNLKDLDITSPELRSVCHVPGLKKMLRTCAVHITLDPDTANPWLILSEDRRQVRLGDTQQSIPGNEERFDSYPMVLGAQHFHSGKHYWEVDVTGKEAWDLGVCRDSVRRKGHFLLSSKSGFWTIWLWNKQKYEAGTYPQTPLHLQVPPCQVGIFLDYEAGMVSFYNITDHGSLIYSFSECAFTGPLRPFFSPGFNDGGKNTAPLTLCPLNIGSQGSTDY
Result: 100 to 1000 nM

Q: Give recorded Kd with TRIM21 protein (Homo sapiens (Human), UniProt P19474) for the following compound: COc1ccccc1-c1ccc(C(=O)N(C)CC2COC2)c(S(C)(=O)=O)c1
Result: 1000 to 10000 nM

Q: Give recorded Kd with TRIM21 protein (Homo sapiens (Human), UniProt P19474) for the following compound: COc1cc(CN(C)C(=O)c2ccc(-c3ccccc3SC)cc2S(C)(=O)=O)ccn1
Result: 100 to 1000 nM

Q: Give recorded Kd with TRIM21 protein (Homo sapiens (Human), UniProt P19474) for the following compound: COc1cc(F)ccc1-c1ccc(C(=O)N(C)CC2CCCCC2)c(S(C)(=O)=O)c1
Result: 1 to 10 nM

---

Target: TRIM21 protein (Homo sapiens (Human), UniProt P19474)
MEASURE NAME: Kd

Q: Give recorded Kd with TRIM21 protein (Homo sapiens (Human), UniProt P19474) for the following molecule: CSc1ccccc1-c1ccc(C(=O)N(C)Cc2ccsc2)c(S(C)(=O)=O)c1
Result: 100 to 1000 nM

Q: Give recorded Kd with TRIM21 protein (Homo sapiens (Human), UniProt P19474) for the following molecule: CSc1ccccc1-c1ccc(C(=O)N(C)Cc2cc[nH]c2)c(S(C)(=O)=O)c1
Result: 10 to 100 nM

Q: Give recorded Kd with TRIM21 protein (Homo sapiens (Human), UniProt P19474) for the following molecule: CN(CC1CCCCC1)C(=O)c1ccc(-c2ccc(F)cc2)cc1S(C)(=O)=O
Result: 1000 to 10000 nM

Q: Give recorded Kd with TRIM21 protein (Homo sapiens (Human), UniProt P19474) for the following molecule: CSc1ccccc1-c1ccc(C(=O)N(C)[C@H](C)C2CCC2)c(S(C)(=O)=O)c1
Result: 100 to 1000 nM

Q: Give recorded Kd with TRIM21 protein (Homo sapiens (Human), UniProt P19474) for the following molecule: CN(CC1CCCCC1)C(=O)c1ccc(-c2cccc3ccoc23)cc1S(C)(=O)=O
Result: > 10000 nM

Q: Give recorded Kd with TRIM21 protein (Homo sapiens (Human), UniProt P19474) for the following molecule: COc1ccccc1-c1ccc(C(=O)N(C)CC2CCC(O)CC2)c(S(C)(=O)=O)c1 (centres unmarked)
Result: 100 to 1000 nM

Q: Give recorded Kd with TRIM21 protein (Homo sapiens (Human), UniProt P19474) for the following molecule: CSc1ccccc1-c1ccc(C(=O)N(C)CC2(F)CCCCC2)c(S(C)(=O)=O)c1
Result: 100 to 1000 nM

Q: Give recorded Kd with TRIM21 protein (Homo sapiens (Human), UniProt P19474) for the following molecule: COc1ccccc1-c1ccc(C(=O)N(C)[C@H](C)C2CC2)c(S(C)(=O)=O)c1
Result: 1000 to 10000 nM

---

Kindly supply the reported Kd values for the records listed here.

Q: Give recorded Kd with TRIM21 protein (Homo sapiens (Human), UniProt P19474) for the following compound: COc1ccccc1-c1ccc(C(=O)N(C)Cc2cc[nH]c2)c(S(C)(=O)=O)c1 [Compound 29]
Result: 10 to 100 nM

Q: Give recorded Kd with TRIM21 protein (Homo sapiens (Human), UniProt P19474) for the following compound: COc1ccccc1-c1ccc(C(=O)N(C)CC2CN(C(C)=O)C2)c(S(C)(=O)=O)c1 [Compound 26]
Result: > 10000 nM

Q: Give recorded Kd with TRIM21 protein (Homo sapiens (Human), UniProt P19474) for the following compound: CSc1ccccc1-c1ccc(C(=O)N(C)CC2CCOC2)c(S(C)(=O)=O)c1 (stereo not shown) [Compound 15]
Result: 100 to 1000 nM

Q: Give recorded Kd with TRIM21 protein (Homo sapiens (Human), UniProt P19474) for the following compound: CSc1ccccc1-c1ccc(C(=O)N(C)C2CCCCC2)c(S(C)(=O)=O)c1 [Compound 9]
Result: 1000 to 10000 nM
